Assay: Cytotoxicity against African green monkey Vero cells assessed as cell viability at 5 ug/ml after 72 hrs by CCK8 assay (reference value: 100%)
Format: cell-based
Settings: chlorocebus sabaeus, read-out: Activity
Record form. Attribute: viability at 72 h, 5 ug/ml. Fill in for each entry.
// return numeric value only (unit: %, not printed)

// O=C(N/N=C/c1ccc(CSc2nc3ccccc3s2)cc1)c1ccncc1 : viability at 72 h, 5 ug/ml value = 103

// COc1cc(/C=N/NC(=O)c2ccncc2)ccc1O [FTIVAZIDE] : viability at 72 h, 5 ug/ml value = 100

// O=C(N/N=C/c1ccc(CSc2nc3ccccc3o2)cc1)c1ccncc1 : viability at 72 h, 5 ug/ml value = 123

// O=C(N/N=C/c1ccc(CSc2nc3ccccc3[nH]2)cc1)c1ccncc1 : viability at 72 h, 5 ug/ml value = 113
